# procedure details: Cytotoxicity against mouse WEHI cell line by MTT assay
# Assay type: cell-based
# details: WEHI cells, read-out: ED50 (the source's name)
metric name: CC50 (µM)

>>> print(df.to_string())
                                   compound  observed_result
0  COc1ccc2nc3cc(Cl)ccc3c(N/N=C/c3ncc[nH]3)c2c1              5.1
1  CCN(CC)CCCC(C)Nc1ccnc2cc(Cl)ccc12 (stereo not drawn) [CHLOROQUINE]              9.7
2  Clc1ccc2c(N/N=C/c3ccc(CN4CCCC4)cc3)ccnc2c1             19.4
